# Tested on: U2OS
# protocol-description: Incucyte cell viability with U2OS; note: filed as whole numbers so only -1 and 0 and 1 occur
# Type: toxicity, cell-based
# measurement-conditions: human, 6 h, 10 µM, compound concentration 10 uM, replicate number 1, timepoint 6 hours
Readings of Growth Rate for the listed molecules
Respond using a number only.

Please review the entries below; each comes with its answer.
molecule: CCCCC#Cc1nc(NC)c2ncn([C@@H]3O[C@H](CO)[C@@H](O)[C@H]3O)c2n1
Growth Rate: 0

molecule: CCc1cc(Nc2nccc(-c3c(-c4ccc(OC)c(C(=O)Nc5c(F)cccc5F)c4)nc4ccccn34)n2)c(OC)cc1N1CCC(N2CCN(S(C)(=O)=O)CC2)CC1
Growth Rate: 1

molecule: CCOc1ccn(-c2ccc(F)cc2)c(=O)c1C(=O)Nc1ccc(Oc2ccnc(N)c2Cl)c(F)c1 [BMS-777607]
Growth Rate: 0

molecule: CC(C)[C@H](CO)Nc1nc(Nc2cccc(Cl)c2)c2ncn(C(C)C)c2n1 [PURVALANOLA]
Growth Rate: 0

molecule: O=C(O)[C@H]1[C@H](Cn2nnc3ccccc3c2=O)CC[C@@H]1C(=O)c1ccc(OCCC2CCOCC2)cc1 [BAY-7598]
Growth Rate: 1

Respond only with Growth Rate recorded for O=C(NNS(=O)(=O)c1ccccc1)c1cc(-c2ccnnc2)ccc1F [WM-2474]
0

Specify measured Growth Rate for "N#Cc1cccc(C(=O)Nc2cc(-c3ccccc3)nn2-c2ccccc2)c1" .
0

Given NS(=O)(=O)c1cc(NC(=O)Cc2ccccc2)ccc1Oc1cccc(Cl)c1 [BAY-1797] , respond with its Growth Rate.
0

Could you please provide reported Growth Rate for Cl.Cn1c2c(c3ccc(Cl)c(Cl)c31)C(C#N)C1(CCNCC1)NC2=O (centres undefined) ? Thanks!
0
